Recorded values, source ChEMBL document CHEMBL1132257.

assay: Inhibition against Aminopeptidase P from bovine.; format: single protein
OUTCOME_MEASURE: IC50 (µM)
One number for each entry, in µM.

C[C@H](NC(=O)[C@@H]1CCCN1C(=O)[C@@H]1CSCN1C(=O)[C@@H](O)[C@H](N)Cc1ccccc1)C(N)=O | 34
C[C@H](NC(=O)[C@@H]1CCCN1C(=O)[C@@H]1CCCN1C(=O)[C@@H](O)[C@H](N)Cc1ccccc1)C(N)=O | 9.4
C[C@H](NC(=O)[C@@H]1CCCN1C(=O)C1CCCC1S)C(N)=O (stereo in doubt; 12) | 10
C[C@H](NC(=O)[C@@H]1CCCN1C(=O)C1CCCC1S)C(N)=O (stereo in doubt; 13) | 300
NC(=O)[C@@H]1CCCN1C(=O)[C@@H]1CCCN1C(=O)[C@@H](O)[C@H](N)Cc1ccccc1 | 1300

Record summary for C[C@H](NC(=O)[C@@H]1CCCN1C(=O)C1CCCCC1C(=O)NO)C(N)=O (stereo in doubt; 14) : reported IC50 = 50

###

biological target: Xaa-Pro aminopeptidase 1 (Homo sapiens); experiment: Inhibition against cytosolic Aminopeptidase P from human heart.
Sequence (Q9NQW7 whole entry): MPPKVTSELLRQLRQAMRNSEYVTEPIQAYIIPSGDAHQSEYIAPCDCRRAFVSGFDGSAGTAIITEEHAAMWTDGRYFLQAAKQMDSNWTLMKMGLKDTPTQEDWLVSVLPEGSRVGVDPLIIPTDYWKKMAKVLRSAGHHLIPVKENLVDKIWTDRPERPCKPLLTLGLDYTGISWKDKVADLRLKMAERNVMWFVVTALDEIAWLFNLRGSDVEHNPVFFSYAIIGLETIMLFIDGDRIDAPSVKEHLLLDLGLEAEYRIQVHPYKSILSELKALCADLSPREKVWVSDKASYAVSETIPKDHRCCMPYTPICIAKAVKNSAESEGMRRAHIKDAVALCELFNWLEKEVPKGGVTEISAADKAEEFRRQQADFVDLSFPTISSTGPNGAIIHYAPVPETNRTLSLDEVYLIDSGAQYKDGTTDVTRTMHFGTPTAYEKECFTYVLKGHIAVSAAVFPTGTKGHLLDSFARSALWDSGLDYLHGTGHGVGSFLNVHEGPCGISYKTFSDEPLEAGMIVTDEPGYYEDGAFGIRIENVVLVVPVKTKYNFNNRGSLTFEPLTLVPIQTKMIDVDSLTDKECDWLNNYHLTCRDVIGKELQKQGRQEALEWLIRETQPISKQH
I'd be grateful if you could share measured pIC50 for these entries.
Numbers only, as −log10 of the molar value.

C[C@H](NC(=O)[C@@H]1CCCN1C(=O)[C@@H]1CSCN1C(=O)[C@@H](O)[C@H](N)Cc1ccccc1)C(N)=O | 4.09

Below are some compounds; for each one, tell me its pIC50.
1. NC(=O)[C@@H]1CCCN1C(=O)[C@@H]1CCCN1C(=O)[C@@H](O)[C@H](N)Cc1ccccc1
2. C[C@H](NC(=O)[C@@H]1CCCN1C(=O)C1CCCC1S)C(N)=O (stereo in doubt; 12)

Reply |
1: 4.35; 2: 5.20

Below are some compounds; for each one, tell me its pIC50.
1. C[C@H](NC(=O)[C@@H]1CCCN1C(=O)C1CCCC1S)C(N)=O (stereo in doubt; 13)
2. C[C@H](NC(=O)[C@@H]1CCCN1C(=O)[C@@H]1CCCN1C(=O)[C@@H](O)[C@H](N)Cc1ccccc1)C(N)=O

Reply |
1: 4.28; 2: 4.68

###

Target: Xaa-Pro aminopeptidase 2 (Rattus norvegicus, UniProt Q99MA2)
Sequence (Q99MA2 whole entry): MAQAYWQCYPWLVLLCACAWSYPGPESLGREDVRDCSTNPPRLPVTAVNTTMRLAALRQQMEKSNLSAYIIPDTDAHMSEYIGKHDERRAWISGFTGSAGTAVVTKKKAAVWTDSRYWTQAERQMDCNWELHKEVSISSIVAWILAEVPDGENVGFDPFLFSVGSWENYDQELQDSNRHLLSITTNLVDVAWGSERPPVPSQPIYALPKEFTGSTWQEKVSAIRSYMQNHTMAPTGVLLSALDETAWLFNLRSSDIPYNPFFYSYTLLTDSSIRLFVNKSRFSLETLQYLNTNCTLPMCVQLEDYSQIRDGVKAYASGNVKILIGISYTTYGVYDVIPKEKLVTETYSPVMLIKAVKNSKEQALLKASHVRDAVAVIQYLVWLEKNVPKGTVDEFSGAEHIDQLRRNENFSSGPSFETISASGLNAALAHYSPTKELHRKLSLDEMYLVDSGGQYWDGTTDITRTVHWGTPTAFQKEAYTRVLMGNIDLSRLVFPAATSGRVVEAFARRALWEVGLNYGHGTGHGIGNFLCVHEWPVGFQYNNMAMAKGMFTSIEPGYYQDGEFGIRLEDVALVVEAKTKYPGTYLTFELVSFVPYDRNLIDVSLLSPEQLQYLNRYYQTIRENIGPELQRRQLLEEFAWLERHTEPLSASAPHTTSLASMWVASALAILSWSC
OUTCOME_MEASURE: pIC50
Give bare numbers, as −log10 of the molar value.

Record summary for C[C@H](NC(=O)[C@@H]1CCCN1C(=O)C1CCCC1S)C(N)=O (stereo in doubt; 13) : reported pIC50 = 3.82
